test.target: DMPK (human)
assay.remarks: split-luciferase competition binding
experimental.setup: compound 10.0 µM
measured.parameter: inhibition (%)

[[record]]
compound = "Cc1cc(I)ccc1Nc1c(C(=O)NOCC2CC2)cc(F)c(F)c1F"
recorded_result = 20

[[record]]
compound = "C=CC(=O)c1ccc2ccccc2c1"
recorded_result = 0

[[record]]
compound = "O=c1cc(N2CCOCC2)nc2c3ccccc3ccn12"
recorded_result = 0

[[record]]
compound = "O=S(=O)(c1cccc2cnccc12)N1CCCNCC1"
recorded_result = 0

[[record]]
compound = "C/C(O)=C(\\C#N)C(=O)Nc1cc(Br)ccc1Br"
recorded_result = 0


P = O=C1NC(=O)C(c2ccccc2[N+](=O)[O-])=C1Nc1ccc(O)c(Cl)c1
Q = Fc1ccc(Cl)cc1-c1nc(Nc2ccncc2)c2nccnc2n1
R = CN1CC[C@H](c2c(O)cc(O)c3c(=O)cc(-c4ccccc4Cl)oc23)[C@H](O)C1
Rank the items in ascending order with respect to inhibition. Thanks in advance for listing the labels in the requested order.
P, R, Q

====

test.target: PRKACB (human)
assay.remarks: split-luciferase competition binding
experimental.setup: compound 10.0 µM
measured.parameter: inhibition (%)

Solved cases below.
[[record]]
compound = "CC(C)N(CCC(=O)c1ccc2ccccc2c1)Cc1ccccc1"
test_target = "PRKACB (human)"
quantity_unit = "%"
recorded_result = 0

[[record]]
compound = "Cn1cnc2c(NCc3ccccc3)nc(NCCO)nc21"
test_target = "PRKACB (human)"
quantity_unit = "%"
recorded_result = 0

[[record]]
compound = "COc1cc(CC2C(=O)OC[C@@H]2Cc2ccc(OC)c(OC)c2)ccc1O (stereo partly drawn)"
test_target = "PRKACB (human)"
quantity_unit = "%"
recorded_result = 1

[[record]]
compound = "CC(C)(C)n1nc(-c2ccc(Cl)cc2)c2c(N)ncnc21"
test_target = "PRKACB (human)"
quantity_unit = "%"
recorded_result = 8

[[record]]
compound = "Cc1ccccc1C(=O)c1ccc(Nc2ccc(Br)cc2N)cc1Cl"
test_target = "PRKACB (human)"
quantity_unit = "%"
recorded_result = 0

[[record]]
compound = "O=C(NC(NC(=S)Nc1ccc(F)c([N+](=O)[O-])c1)C(Cl)(Cl)Cl)C(c1ccccc1)c1ccccc1 (stereo not drawn)"
test_target = "PRKACB (human)"
quantity_unit = "%"
recorded_result = 7


I = CN(C)CCCn1cc(C2=C(c3c[nH]c4ccccc34)C(=O)NC2=O)c2ccccc21
II = Cn1cc(C2=C(c3ccc(Cl)cc3Cl)C(=O)NC2=O)c2ccccc21
III = NC(=O)Nc1sc(-c2ccc(F)cc2)cc1C(N)=O
IV = NC(=O)c1sc(-c2ccsc2)cc1N
V = Fc1ccc(Cl)cc1-c1nc(Nc2ccncc2)c2nccnc2n1
Rank items: key inhibition, increasing. // format: requested-order list of labels
III, IV, II, V, I
(III: 0%, IV: 2%, II: 8%, V: 19%, I: 34%)

====

test.target: AURKA (human)
assay.remarks: split-luciferase competition binding
experimental.setup: compound 10.0 µM
measured.parameter: inhibition (%)

[[record]]
compound = "O=C1NC(=O)C(c2ccccc2[N+](=O)[O-])=C1Nc1ccc(O)c(Cl)c1"
recorded_result = 6

[[record]]
compound = "Nc1ncnc2[nH]nc(Nc3ccc(F)cc3)c12"
recorded_result = 0

[[record]]
compound = "CCN(CC)CCNC(=O)c1c(C)[nH]c(/C=C2\\C(=O)Nc3ccc(F)cc32)c1C"
recorded_result = 0

[[record]]
compound = "CC(C)[C@H](CO)Nc1nc(Nc2cccc(Cl)c2)c2ncn(C(C)C)c2n1"
recorded_result = 0

[[record]]
compound = "O=c1cc(N2CCOCC2)oc2c1ccc1ccccc12"
recorded_result = 0


P = Cc1cc(I)ccc1Nc1c(C(=O)NOCC2CC2)cc(F)c(F)c1F
Q = NC(=O)Nc1sc(-c2ccc(F)cc2)cc1C(N)=O
R = COc1cc2nccc(Oc3ccc(NC(=O)Nc4ccc(F)cc4F)c(F)c3)c2cc1OC
Output the entries ranked by inhibition from maximum down to minimum. Field: ranking. Enter the labels in the order requested.
R, Q, P
(R: 41%, Q: 1%, P: 0%)

Data origin: the kinase profiling compilation of Christmann-Franck et al. (2016)
